REPORTED_ENDPOINT: melting point

Observe how each entry below is paired with its result.
{"MOLECULE": "Cc1ccc(/C=C/c2sccc2S(=O)(=O)Nc2onc(C)c2Br)cc1", "RECORDED_MEASUREMENT": "101 to 105 °C"}
{"MOLECULE": "COc1cc(NC(C)=O)ccc1OCCN1CCN(c2ccccc2F)CC1", "RECORDED_MEASUREMENT": "118 to 119 °C"}
{"MOLECULE": "C=C(c1cc(F)ccc1OCc1ccc(Cl)cc1Cl)n1ccnc1", "RECORDED_MEASUREMENT": "118 to 120 °C"}
{"MOLECULE": "Fc1cccc2c1CNC2", "RECORDED_MEASUREMENT": "46.5 to 48.5 °C"}
{"MOLECULE": "Cc1ccc(C=CC(=O)c2ccccc2)o1", "RECORDED_MEASUREMENT": "57 to 61 °C"}
{"MOLECULE": "CC(C)Cn1cnc2c(N)nc3c(c21)CCNC3", "RECORDED_MEASUREMENT": "220 to 223 °C"}

input: So what's the measured melting point for this one? CC(C)(C)OC(=O)NNC(=O)c1ccnc2[nH]c(CCc3ccccc3)cc12
output: 187 to 188 °C

input: State the recorded melting point for this entry: CCc1cn(C2CC(O)C(CNC(=O)C(C)S(=O)(=O)c3ccc(Cl)cc3Cl)O2)c(=O)[nH]c1=O (mixture of isomers)
output: 183 to 184 °C

input: For the molecule shown here, COc1cc2ccc(C(=O)CCC(=O)O)cc2cc1OC , give the reported melting point.
output: 215 to 229 °C

input: Entry CCCC(=O)c1cnc2ccccc2c1Nc1ccccc1C has what melting point?
output: 107 to 109 °C

input: Any idea what melting point was measured for CC1(C)CC(=O)c2c(C3CCC3)sc(-c3nccs3)c2C1 ?
output: 126 to 128 °C

input: What does the record list as melting point for COc1ccc([N+](=O)[O-])c(C=O)c1OC ?
output: 106 to 108 °C

input: What does the record list as melting point for FC(F)(F)c1ccc(-c2cc(C(F)(F)F)n3cnc(I)c3n2)cc1 ?
output: 141 °C

input: I would be grateful if you could share the reported melting point for CNC(=S)N(Cc1cccnc1)N(C)C .
output: 101 to 102 °C

input: Give the measured melting point of O=C(O)Cc1ccc2c(c1)sc1ccc(Cl)cc12 .
output: 220 to 221 °C

input: # query: melting point of entry Cc1cc(C(=O)NC(CCC(=O)OC(C)(C)C)C(=O)O)ccc1-c1c2cc(F)c(=O)cc-2oc2cc(O)c(F)cc12 (stereo not drawn)
output: 134 to 138 °C

input: Please give the measured melting point for this molecule: CSc1nnc(-c2ccc3occ(-c4cc(F)ccc4F)c3c2)o1
output: 158 to 159 °C

input: Dear colleague, I am looking for the recorded melting point of the following molecule: CCOc1cn(C2CC(O)C(CO)O2)c(=O)[nH]c1=O (stereo not drawn)
output: 179 to 181 °C

input: Consider the molecule shown here: CCc1oc2ccccc2c1C(=O)NCc1ccc2c(Br)c(OC(Cc3ccccc3)C(=O)OC)ccc2c1 (stereo not drawn) What is its recorded melting point?
output: 139 to 143 °C

input: melting point lookup needed for Cn1nc(N2c3cc(F)ccc3CC2C(=O)N2CCCCCC2)ccc1=O (stereo not drawn) , thanks.
output: 204 to 207 °C

input: Entry under review: CC(=O)N1CCC(Oc2ccc(C(F)(F)F)cc2)(c2ccccc2)CC1 . Reported melting point?
output: 96 to 100 °C

input: For the molecule shown here, COC(=O)CCC(C)C(=O)N[C@@H](C)C(=O)OCc1ccccc1 (stereo partly drawn) , give the reported melting point.
output: 97 to 99 °C

input: Can you look up the measured melting point of O=c1c2c(nc3c(O)cccn13)CCC2 for me?
output: 136 to 142 °C

input: State the recorded melting point for this entry: COC(=O)c1cc(C)cc(CNO)c1
output: 99 to 100 °C

input: Item under review: CNC(=O)NCCn1c(-c2ccc(CN3CCOCC3)cc2OC)csc1=Nc1ccc(F)c(C)c1 . Reported melting point?
output: 158 to 162 °C

input: Form field: reported melting point of Oc1c(Br)cc(F)cc1Cc1cc(Cl)cc(Cc2cc(F)cc(Br)c2O)c1O
output: 192 to 194 °C

input: Requested read-out: melting point. Entry: CCC1(CCCCN2CCN(c3ccccn3)CC2)C(=O)Nc2ccc(Br)cc21 (stereo not drawn)
output: 114 to 115 °C

input: # get_value(readout='melting point', item= CCOP(=S)(OCC)Oc1nsc(C)c1C(N)=O )
output: 68 °C

input: Would you kindly share the measured melting point for O=C(O)C1C=C(c2ccccc2)CC1 (stereo not drawn) ?
output: 122 to 124 °C

input: Data request, read-out melting point, for CC(C)c1nn(-c2ccc(C(F)(F)F)cn2)cc1CO
output: 119 to 120 °C

###

Each entry below carries its reported melting point.

input: Which measured melting point value corresponds to O=C(COc1ccc(-c2ccc(F)cc2)cc1)Nc1cscc1C(=O)O ?
output: 244 to 251 °C

input: For Nc1cc(C2COCCO2)ccn1 (centres undefined) , what is its reported melting point?
output: 123 to 126 °C

###

Property: melting point; scope: individual molecules

Example cases with answers are listed next.
{"MOLECULE": "CCOn1nnc2ccc(C(C)n3ccnc3)cc21 (configuration not stated)", "RECORDED_MEASUREMENT": "81.1 °C"}
{"MOLECULE": "CCOC(=O)c1c([N+](=O)[O-])c(-c2ccc(Cl)cc2)n(OC)c1C(F)(F)F", "RECORDED_MEASUREMENT": "90 to 92 °C"}

input: // lookup melting point for CC1(CBr)OC(C(Br)(Br)Br)OC1=O (configuration not stated)
output: 110 to 113 °C

input: # input molecule: COc1ccc(C(CN(C)C)c2nnc3n2-c2ccc(Cl)cc2C(c2ccccc2)=NC3)cc1 (configuration not stated) ; wanted: its melting point
output: 138 to 142 °C

input: Name the reported melting point value associated with the molecule COC(=O)c1cccc2nc(OC)n(Cc3ccc(-c4ccccc4C#N)cc3)c12
output: 149 to 150 °C

input: Please report the recorded melting point for c1c(NC23CC4CC(CC(C4)C2)C3)nc(NC23CC4CC(CC(C4)C2)C3)nc1N1CCNCC1 .
output: 168 to 175 °C

input: Fill blank: measured melting point of the molecule OC1CN(Cc2ccccc2)C1 is ____.
output: 64.5 to 65.5 °C

###

Measured melting point by item

# example entries with known answers
{"MOLECULE": "CC(=O)c1ccc(NS(C)(=O)=O)c(Cl)c1", "melting point": "129 to 131 °C"}
{"MOLECULE": "Cn1cccc1C=CC1=CC(=O)C(C)(C)O1", "melting point": "98.5 to 100 °C"}
{"MOLECULE": "Brc1ccc(-c2cc(-c3ccc(Br)cc3)on2)cc1", "melting point": "218 to 220 °C"}
{"MOLECULE": "CCCCCCCNC(=O)Nc1ccccc1C(=O)NCCCC1CCN(C(c2ccccc2)c2ccccc2)C1 (configuration not stated)", "melting point": "109 to 111 °C"}
{"MOLECULE": "Cc1c(Cl)c(OCC(=O)O)c(Cc2ccc3c(Cl)cccc3c2)c(O)c1C=O", "melting point": "194 to 196 °C"}
{"MOLECULE": "O=C1NC(=O)C2(CCOc3ccc(F)cc32)S1 (configuration not stated)", "melting point": "147 to 149 °C"}
{"MOLECULE": "Cc1nc2c(s1)N(C(=O)c1cnoc1C)CCCC2", "melting point": "117 to 118 °C"}
{"MOLECULE": "O=C(O)c1ccc(Oc2ccc(Oc3ccccc3)cc2)cc1", "melting point": "185 °C"}
{"MOLECULE": "CC(C)(O)C(=O)Nc1ccc2ccccc2c1", "melting point": "155 to 157 °C"}
{"MOLECULE": "N#CC(NCc1cccnc1)c1ccoc1 (configuration not stated)", "melting point": "80 to 82 °C"}

input: Value lookup for melting point; key = Cc1ccccc1C(=O)c1cccn1C
output: 90 to 92.5 °C

input: Query (molecule): CCCCc1nc(Cl)c(COC)n1Cc1ccc(-c2ccccc2NS(=O)(=O)C(F)(F)F)cc1 ; field requested: melting point
output: 148 to 150 °C

input: Request the reported melting point associated with Cc1nc(C)c(Cl)c(NCc2nccc(OCCCCN3CCN(Cc4ccncc4)CC3)c2C)n1
output: 157 to 158 °C

input: Give the measured melting point of O=S1(=O)NN=Cc2ccsc21 .
output: 125 to 127 °C

input: Given CCNC(=O)c1ccc(N2CCN(Cc3cnc4c(c3)[nH]c(=O)n3cccc43)CC2)c(F)c1 , state its recorded melting point.
output: 263 to 267 °C

input: Query (molecule): N#Cc1ccc(Cl)c(C=NO)c1 ; field requested: melting point
output: 191 to 193 °C

input: # query: melting point of entry O=C(O)c1cccc(Oc2ccc(C(F)(F)F)c(Cl)c2)c1
output: 90 to 91 °C

input: # melting point lookup, item CN1CCC(N(Cc2cccn2C)S(=O)(=O)c2ccc(Nc3nccc(Nc4ccc(F)cc4)n3)cc2)CC1
output: 129 °C

input: Need melting point of Nc1nc(-c2ccccc2)cc(C2CCN(C(=O)c3ccccc3)CC2)n1 , thanks.
output: 104 to 105 °C

input: For Oc1ccc(F)c(O)c1F , what is its reported melting point?
output: 100 to 101 °C

input: # get_value(readout='melting point', item= C=C(C)Cn1c(C)c(C)c2cnnc(OCc3ccc(F)cc3)c21 )
output: 118 to 120 °C

input: Which melting point value belongs to Cn1cnc2c1c(=O)n(CCCBr)c(=O)n2C ?
output: 142 to 144 °C
